tested on: MDA-MB-231 breast; experiment: NCI tumour cell line growth inhibition, 48 h; in the data active = GI50 below about 0.43 µM; inactive = the rest
Hello, when you answer, please use one of the following outcomes: label 1 = active, label 0 = inactive

Hey, what did the test say about CCN1C(=O)N(CC)C2C1NN=c1s/c(=C\c3ccc(Br)cc3)c(=O)n12 (centres undefined) ?
label 1

Hey, what did the test say about CN1c2cccc[c]2[Sn]([CH3])([CH3])[c]2ccccc21 ?
label 1

Hey, what did the test say about Cc1cccc(Nc2ncc(-c3ccccc3)o2)c1 ?
label 0

Hey, what did the test say about O=C1NC(=O)/C(=C/c2ccc3nccc(-c4ccncc4)c3c2)S1 ?
label 1

Hey, what did the test say about COc1ccc(CNCCN2C(=O)c3ccc4c5c(ccc(c35)C2=O)C(=O)N(CCNCc2ccc(OC)c(OC)c2OC)C4=O)c(OC)c1OC ?
label 1

Hey, what did the test say about CC(C)Cc1cc(-c2cccn2C)c(C#N)c(=O)[nH]1 ?
label 0

Hey, what did the test say about COc1cc(-c2cc(-c3ccc(Nc4nc(Nc5ccc(Cl)cc5)nc(Nc5ccc(Cl)cc5)n4)cc3)no2)cc(OC)c1OC ?
label 0

Hey, what did the test say about C=C1[C@H](O)C[C@@H](C(C)C(O)CC=C(C)C)[C@@H](O)[C@@H]2C(C)=CC[C@@H]12 (some centres undefined) ?
label 0

Hey, what did the test say about O=C(Nc1cccc(Cl)c1)Nc1cc(C(F)(F)F)ccc1Cl ?
label 0

----------
test system: COLO 205 colon; assay: NCI tumour cell line growth inhibition, 48 h
Please provide measured TGI for the entries that follow.

Short answer please: TGI, COLO 205 colon, entry CCOC1=C2N=C(C(CC)c3ccc(F)cc3)N=C2C(=O)c2ccccc21 (stereo not drawn)
47 µM

Short answer please: TGI, COLO 205 colon, entry O=C(/C=C/c1cc2ccccc2[nH]c1=O)c1ccc(O)cc1
19.7 µM

Short answer please: TGI, COLO 205 colon, entry CCOC(=O)/C(C(N)=O)=C(/O)c1cnccn1
> 100 µM

Short answer please: TGI, COLO 205 colon, entry COc1ccc2nc3c(nc2c1)C(C)(C)C=C3c1ccc(Br)cc1
> 100 µM

Short answer please: TGI, COLO 205 colon, entry Clc1ccc(Nc2nnc(COc3ccccc3)c3ccccc23)cc1
4.38 µM

Short answer please: TGI, COLO 205 colon, entry COc1c(C(=O)CC2c3c(cc4oc(C)cc(=O)c4c3OC)OC(=N)C2c2nc3ccccc3[nH]2)c(O)c(OC)c2occc12 (stereo not drawn)
> 100 µM

Short answer please: TGI, COLO 205 colon, entry CN1C(=O)c2c(c3c4ccccc4n(C)c3c3c2c2ccccc2n3C)C1=O
> 100 µM

Short answer please: TGI, COLO 205 colon, entry CCCCCCCCC/C=C1/CC(CO)(COC(=O)C2CCCCC2)OC1=O (stereo not drawn)
> 100 µM

Short answer please: TGI, COLO 205 colon, entry Nc1nc(N)c2c(n1)NC(c1ccc(Cl)cc1)C1CCc3ccccc3C1=N2 (stereo not drawn)
9.05 µM

Short answer please: TGI, COLO 205 colon, entry O=C(Cn1cc(I)c(C(=O)NCC(O)CO)n1)NCC(O)CO (stereo not drawn)
> 100 µM

Short answer please: TGI, COLO 205 colon, entry COc1cccc(/C=C/C(=O)c2cc3c(N)c(C(=O)Nc4ccccc4)sc3nc2C)c1
4.71 µM

Short answer please: TGI, COLO 205 colon, entry Cc1ccccc1C1SCc2nc3ccccc3n21 (stereo not drawn)
> 100 µM

Short answer please: TGI, COLO 205 colon, entry Nc1ccc2ncc(NCc3ccc(F)cc3)nc2c1
> 100 µM

Short answer please: TGI, COLO 205 colon, entry Nc1[nH]c(=S)[nH]c(=O)c1N=Nc1c(Br)cc(S(N)(=O)=O)cc1Br
> 100 µM

Short answer please: TGI, COLO 205 colon, entry CC(C)(C)c1ccc(OCCOc2ccc(C(C)(C)C)cc2NC=O)c(NC=O)c1
4.33 µM

Short answer please: TGI, COLO 205 colon, entry CCOP(=O)(OCC)C(Cc1cn(S(=O)(=O)c2ccc(C)cc2)cn1)C(=O)O (stereo not drawn)
> 100 µM

Short answer please: TGI, COLO 205 colon, entry O=S1c2ccccc2N=C(c2cccs2)CC1c1ccccc1O (stereo not drawn)
> 100 µM

Short answer please: TGI, COLO 205 colon, entry Nc1nc2c(nnn2C2C=C(CO)C(O)C2O)c(=O)[nH]1 (stereo not drawn)
> 100 µM

Short answer please: TGI, COLO 205 colon, entry CCCCCCCC(=O)[O-].N.N.N.N.N.[Co+3].[O-][Cl+3]([O-])([O-])[O-]
> 100 µM

Short answer please: TGI, COLO 205 colon, entry Oc1ccc(Cl)cc1N=Nc1c(O)ccc2ccccc12
> 100 µM

Short answer please: TGI, COLO 205 colon, entry Clc1ccc(CCNCCNC2(c3cc4ccccc4s3)CCCCC2)cc1Cl
2.99 µM

Short answer please: TGI, COLO 205 colon, entry O=C1C(Nc2ccc(S(=O)(=O)Nc3cnc4ccccc4n3)cc2)=CC(=Nc2ccc(S(=O)(=O)Nc3cnc4ccccc4n3)cc2)c2ccccc21
33.1 µM

Short answer please: TGI, COLO 205 colon, entry Oc1ccccc1-c1cnnc(-c2ccccc2O)c1
41.7 µM

Short answer please: TGI, COLO 205 colon, entry COc1ccc(C2[C@@H](Cl)C(=O)N2c2ccc(OC)cc2)cc1 (stereo partly drawn)
> 100 µM

Short answer please: TGI, COLO 205 colon, entry C/C(COc1ccccc1)=N\NC(N)=S
> 100 µM

Short answer please: TGI, COLO 205 colon, entry Cn1cnc([N+](=O)[O-])c1Sc1nnc(-c2ccc(Cl)cc2)n1C
24.3 µM

Short answer please: TGI, COLO 205 colon, entry COc1ccc(/C=N/NC(=O)NCCNCCO)cc1
> 100 µM

Short answer please: TGI, COLO 205 colon, entry O=Cc1cc2sc(C=O)cc2s1
> 100 µM
